For each record, write down the corresponding folding stability dG.
B1: 2M8U (parent)
chain: TKAQVIEAFKVFDRDGNGYVTVDYLRKVLNELGDMMPADEIEEMIYEADPQNSGYVQYETFVGMLFL

Variants of: B1
Assay: folding stability dG (cDNA display proteolysis); higher = more stable
Conditions: PBS, room temperature
Give bare numbers, in kcal/mol.

Worked examples, 4 variants total:
>  <ALTERATION>
E42Y

>  <UNIT OF MEASURE>
kcal/mol

>  <folding stability dG>
2.97

$$$$
>  <ALTERATION>
E42G

>  <UNIT OF MEASURE>
kcal/mol

>  <folding stability dG>
3.04

$$$$
>  <ALTERATION>
N17W

>  <UNIT OF MEASURE>
kcal/mol

>  <folding stability dG>
2.95

$$$$
>  <ALTERATION>
F12I

>  <UNIT OF MEASURE>
kcal/mol

>  <folding stability dG>
3.04

$$$$

Challenge: Retrieve folding stability dG measured for G16C and print it.
Response given: 2.92
